# study-target: Glycogen synthase kinase-3 (Sus scrofa, UniProt B2LUN4+I6LNT8)
# assay-procedure: Inhibition of porcine brain GSK3alpha/beta assessed as [gamma-33P]ATP incorporation after 30 mins by scintillation counting
quantity-name: IC50 (µM)

test-smiles | quantity-name | units | meas-value
CC(=O)Nc1ccc2c(c1)/C(=C1/Nc3ccccc3/C1=N\O)C(=O)N2 | IC50 | µM | 0.35

[A] O=C1Nc2cc([N+](=O)[O-])ccc2/C1=C1/Nc2ccccc2/C1=N\O
[B] Nc1ccc2c(c1)/C(=C1/Nc3ccc(Br)cc3/C1=N\O)C(=O)N2
[C] CC(=O)Nc1ccc2c(c1)/C(=C1/Nc3ccccc3C1=O)C(=O)N2
[D] O=C1Nc2cc([N+](=O)[O-])ccc2/C1=C1/Nc2ccccc2C1=O
**Q:** Your job: order these 4 records by IC50, ascending. Form field (ranking): labels in requested order.
**A:** C, A, B, D
(C: 0.0075 µM, A: 0.04 µM, B: 6.6 µM, D: 60 µM)

Hello, the source for this data is ChEMBL document CHEMBL1152528, in case you need it.
